- System tested: Neuropeptide Y receptor type 4 (Homo sapiens)
- Method: Displacement of [3H]UR-KK200 from human Y4 receptor expressed in CHO cells co-expressing Gqi5-mtAEQ measured after 90 mins by scintillation counting analysis
- Assay type: cell-based
- Conditions: read-out: Ki
pKi: −log10 of the molar value.
Measurement type: pKi

INSERT INTO results (substance, experimental_value) VALUES
  ('Ac-RGYRWRY-NH2', 7.54),
  ('Ac-RGYRWRW-NH2', 6.60),
  ('Ac-RFRLRY-NH2', 8.05),
  ('H-RYRGRY-NH2', 6.72),
  ('Ac-RYRWRY-NH2', 7.01),
  ('Ac-RGWRLRY-NH2', 8.55),
  ('Ac-RYRPRY-NH2', 5.74),
  ('H-RYRARY-NH2', 6.62),
  ('Ac-RGRLRY-NH2', 8.10),
  ('H-RYRWRY-NH2', 7.55),
  ('Ac-RGYRLRW-NH2', 7.42);

###

- System tested: Neuropeptide Y receptor type 1 (Homo sapiens)
- Sequence (P25929 whole entry): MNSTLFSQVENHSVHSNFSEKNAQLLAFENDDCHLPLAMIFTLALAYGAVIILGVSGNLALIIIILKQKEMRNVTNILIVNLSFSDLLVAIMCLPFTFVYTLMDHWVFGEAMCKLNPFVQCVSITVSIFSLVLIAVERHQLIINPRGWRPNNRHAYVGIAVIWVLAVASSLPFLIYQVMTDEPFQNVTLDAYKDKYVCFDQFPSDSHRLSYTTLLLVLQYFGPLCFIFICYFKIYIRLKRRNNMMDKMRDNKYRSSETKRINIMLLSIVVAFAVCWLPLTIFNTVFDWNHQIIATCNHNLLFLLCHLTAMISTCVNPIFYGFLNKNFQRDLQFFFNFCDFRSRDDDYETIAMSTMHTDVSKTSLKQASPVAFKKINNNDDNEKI
- Method: Displacement of [3H]UR-MK299 from Y1 receptor in human SK-N-MC cells
- Assay type: cell-based
- Conditions: read-out: pKi (converted)
Square brackets hold non-standard residues; d marks the D form. Peptide text beside a SMILES is read from it. ξ: configuration not given here. ξOrn = NCCCC(N)C(=O)O
Quick reference: Ki of the listed items.
Measurement type: Ki

INSERT INTO measurements (compound, measurement_type, experimental_value) VALUES
  ('CN[C@@H](CCCNC(=N)N)C(=O)N[C@@H](CC(C)C)C(=O)N[C@@H](CCCNC(=N)N)C(=O)N[C@@H](Cc1ccc(O)cc1)C(N)=O', 'Ki', '> 3.16 µM'),
  ('CC(C)C[C@H](NC(=O)[C@H](CCCNC(=N)N)NC(=O)[C@H](Cc1ccc(O)cc1)NC(=O)[C@@H](N)CCCNC(N)=O)C(=O)N[C@@H](CCCNC(=N)N)C(=O)N[C@@H](Cc1ccc(O)cc1)C(N)=O', 'Ki', '> 3.16 µM'),
  ('CC(C)C[C@H](NC(=O)[C@H](CCCNC(=N)N)NC(=O)[C@H](Cc1ccc(O)cc1)NC(=O)[C@H](CCCNC(=N)N)NC(=O)CCC(=O)O)C(=O)N[C@@H](CCCNC(=N)N)C(=O)N[C@@H](Cc1ccc(O)cc1)C(N)=O', 'Ki', '> 0.316 µM'),
  ('CC(=O)N[C@@H](CCCNC(=N)N)C(=O)NC(CCCN)C(=O)NCC(=O)N[C@@H](Cc1c[nH]c2ccccc12)C(=O)N[C@@H](CCCNC(=N)N)C(=O)N[C@@H](CC(C)C)C(=O)N[C@@H](CCCNC(=N)N)C(=O)N[C@@H](Cc1ccc(O)cc1)C(N)=O (stereo not given in full) (Ac-R[ξOrn]GWRLRY-NH2)', 'Ki', '> 1 µM'),
  ('CC(=O)N[C@@H](CCCNC(=N)N)C(=O)N[C@@H](Cc1c[nH]c2ccccc12)C(=O)N[C@@H](CCCNC(=N)N)C(=O)N[C@@H](CC(C)C)C(=O)N[C@@H](CCCNC(=N)N)C(=O)N[C@@H](Cc1ccc(O)cc1)C(N)=O', 'Ki', '> 1 µM');

###

- System tested: Neuropeptide Y receptor type 5 (Homo sapiens, UniProt Q15761)
- Sequence (Q15761 whole entry): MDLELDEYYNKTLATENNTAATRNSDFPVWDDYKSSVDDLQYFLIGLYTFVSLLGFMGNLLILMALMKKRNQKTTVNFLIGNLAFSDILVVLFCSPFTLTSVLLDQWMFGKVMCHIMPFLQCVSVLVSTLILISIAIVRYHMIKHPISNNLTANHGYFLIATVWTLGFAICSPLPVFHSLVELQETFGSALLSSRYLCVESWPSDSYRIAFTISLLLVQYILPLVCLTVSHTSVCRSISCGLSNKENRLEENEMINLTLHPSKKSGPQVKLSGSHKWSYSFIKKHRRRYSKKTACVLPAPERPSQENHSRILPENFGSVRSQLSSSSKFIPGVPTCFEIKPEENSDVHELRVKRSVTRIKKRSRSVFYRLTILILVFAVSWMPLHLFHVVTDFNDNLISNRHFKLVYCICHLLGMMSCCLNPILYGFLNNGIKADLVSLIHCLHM
- Method: Displacement of [3H]propionyl-pNPY from human Y5 receptor expressed in human HEC1B cells
- Type: cell-based
- Conditions: read-out: pKi (converted)
Square brackets hold non-standard residues; d marks the D form. Peptide text beside a SMILES is read from it. ξ: configuration not given here. ξOrn = NCCCC(N)C(=O)O
Measurement type: Ki

INSERT INTO results (compound, experimental_value) VALUES
  ('CC(=O)N[C@@H](CCCNC(=N)N)C(=O)NC(CCCN)C(=O)NCC(=O)N[C@@H](Cc1c[nH]c2ccccc12)C(=O)N[C@@H](CCCNC(=N)N)C(=O)N[C@@H](CC(C)C)C(=O)N[C@@H](CCCNC(=N)N)C(=O)N[C@@H](Cc1ccc(O)cc1)C(N)=O (some centres undefined) (Ac-R[ξOrn]GWRLRY-NH2)', '> 1 µM'),
  ('CC(=O)N[C@@H](CCCNC(=N)N)C(=O)N[C@@H](Cc1c[nH]c2ccccc12)C(=O)N[C@@H](CCCNC(=N)N)C(=O)N[C@@H](CC(C)C)C(=O)N[C@@H](CCCNC(=N)N)C(=O)N[C@@H](Cc1ccc(O)cc1)C(N)=O', '> 1 µM'),
  ('CC(C)C[C@H](NC(=O)[C@H](CCCNC(=N)N)NC(=O)[C@H](Cc1ccc(O)cc1)NC(=O)[C@H](CCCNC(=N)N)NC(=O)CCC(=O)O)C(=O)N[C@@H](CCCNC(=N)N)C(=O)N[C@@H](Cc1ccc(O)cc1)C(N)=O', '> 10 µM'),
  ('CN[C@@H](CCCNC(=N)N)C(=O)N[C@@H](CC(C)C)C(=O)N[C@@H](CCCNC(=N)N)C(=O)N[C@@H](Cc1ccc(O)cc1)C(N)=O', '> 10 µM');

###

- System tested: Neuropeptide Y receptor type 4 (Homo sapiens, UniProt P50391)
- Sequence (P50391 whole entry): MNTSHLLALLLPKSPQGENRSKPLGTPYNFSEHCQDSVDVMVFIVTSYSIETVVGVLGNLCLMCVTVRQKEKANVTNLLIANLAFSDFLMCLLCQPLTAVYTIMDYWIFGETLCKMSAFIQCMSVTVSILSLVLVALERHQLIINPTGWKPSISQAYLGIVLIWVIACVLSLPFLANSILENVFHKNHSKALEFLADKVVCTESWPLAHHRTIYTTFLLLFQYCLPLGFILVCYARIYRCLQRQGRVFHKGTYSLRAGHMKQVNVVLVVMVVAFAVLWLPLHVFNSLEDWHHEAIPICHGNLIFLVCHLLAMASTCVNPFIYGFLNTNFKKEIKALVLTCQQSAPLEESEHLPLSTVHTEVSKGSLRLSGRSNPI
- Method: Agonist activity at human Y4 receptor expressed in CHO cells co-expressing Gqi5-mtAEQ assessed as intracellular calcium mobilization measured for 43 secs in presence of coelenterazine by aequorin-reporter gene based luminescence assay
- Assay type: functional, cell-based
- Conditions: read-out: EC50
# EC50 listing for each entry below
Measurement type: EC50 (nM)

INSERT INTO measurements (substance, reading_unit, readout_qualifier, experimental_value) VALUES
  ('H-RYRGRY-NH2', 'nM', '>', 30000),
  ('Ac-RFRLRY-NH2', 'nM', '=', 550),
  ('Ac-RGWRLRY-NH2', 'nM', '=', 110),
  ('Ac-RGYRLRW-NH2', 'nM', '=', 380),
  ('Ac-RGRLRY-NH2', 'nM', '=', 1200),
  ('Ac-RYRPRY-NH2', 'nM', '>', 30000),
  ('H-RYRARY-NH2', 'nM', '>', 30000);

###

- Species: Homo sapiens
- Method: Selectivity ratio of Ki for displacement of [3H]UR-MK299 from Y1 receptor in human SK-N-MC cells to Ki for displacement of [3H]UR-KK200 from human Y4 receptor expressed in CHO cells co-expressing Gqi5-mtAEQ
- Type: cell-based
Measurement type: Ratio Ki

INSERT INTO assay_data (substance, experimental_value) VALUES
  ('Ac-RFRLRY-NH2', '> 110'),
  ('Ac-RGYRLRW-NH2', '> 26'),
  ('Ac-RGWRLRY-NH2', '> 360'),
  ('Ac-RGRLRY-NH2', '> 380'),
  ('Ac-RGYRWRY-NH2', '> 100'),
  ('H-RYRWRY-NH2', '> 110');

###

- System tested: UniProtKB P50391
- Method: Displacement of [3H]UR-KK200 from human Y4 receptor expressed in CHO cells co-expressing Gqi5-mtAEQ measured after 90 mins by scintillation counting analysis
- Format: cell-based
- Conditions: read-out: Ki
Square brackets hold non-standard residues; d marks the D form. Peptide text beside a SMILES is read from it. ξ: configuration not given here. ξOrn = NCCCC(N)C(=O)O
Consider the following compounds and their measured Ki readings.
Measurement type: Ki

INSERT INTO measurements (compound, system_tested, experimental_value) VALUES
  ('N=C(N)NCCC[C@H](NC(=O)[C@H](Cc1c[nH]c2ccccc12)NC(=O)[C@@H](N)CCCNC(=N)N)C(=O)N[C@@H](Cc1ccc(O)cc1)C(N)=O (H-RWRY-NH2)', 'UniProtKB P50391', '350 nM'),
  ('CC(C)C[C@H](NC(=O)[C@H](CCCNC(=N)N)NC(=O)[C@H](Cc1ccc(O)cc1)NC(=O)[C@@H](N)CCCNC(N)=O)C(=O)N[C@@H](CCCNC(=N)N)C(=O)N[C@@H](Cc1ccc(O)cc1)C(N)=O', 'UniProtKB P50391', '4.8 nM'),
  ('CC(C)C[C@H](NC(=O)[C@H](CCCNC(=N)N)NC(=O)[C@H](Cc1ccc(O)cc1)NC(=O)[C@@H](N)CCCNC(=N)N)C(=O)N[C@@H](CCCNC(=N)N)C(=O)N[C@@H](Cc1ccc(O)cc1)C(N)=O', 'UniProtKB P50391', '2 nM'),
  ('CC(=O)N[C@@H](CCCNC(=N)N)C(=O)NC(CCCN)C(=O)N[C@@H](Cc1ccc(O)cc1)C(=O)N[C@@H](CCCNC(=N)N)C(=O)N[C@@H](Cc1c[nH]c2ccccc12)C(=O)N[C@@H](CCCNC(=N)N)C(=O)N[C@@H](Cc1ccc(O)cc1)C(N)=O (stereo not given in full) (Ac-R[ξOrn]YRWRY-NH2)', 'UniProtKB P50391', '160 nM'),
  ('CC(C)C[C@H](NC(=O)[C@@H](N)CCCNC(=N)N)C(=O)N[C@@H](CCCNC(=N)N)C(=O)N[C@@H](Cc1ccc(O)cc1)C(N)=O', 'UniProtKB P50391', '3.4 nM');
